FYI, the data here is from paper PMC5603853.

method_notes: Pharmacokinetic study after oral administration
Format: in vivo
test_context: rat, plasma; oral 20 mg/Kg, female Wistar rats
quantity: AUC(0-inf) (ng·h/mL)
Write the answer as a number in ng·h/mL, unit excluded.

Find the recorded AUC(0-inf) belonging to CS(=O)(=O)c1ccc(-c2cc(C(=O)O)c3cccc(C(=O)c4ccccc4)c3n2)cc1 [AZGH 102] and report it.
43900

* * *

method_notes: Pharmacokinetic study after intravenous administration
Assay type: in vivo
test_context: rat, plasma; intravenous 10 mg/Kg, female Wistar rats
quantity: Vd (L)
Give the quantity in L, number only.

Given the molecule CS(=O)(=O)c1ccc(-c2cc(C(=O)O)c3cccc(C(=O)c4ccccc4)c3n2)cc1 , what is its reported Vd?
0.101

* * *

method_notes: Pharmacokinetic study after intravenous administration
Format: in vivo
test_context: rat, plasma; intravenous 10 mg/Kg, male Wistar rats
quantity: clearance (mL/min)
Numbers only here, please. The scale is mL/min.

Recorded clearance of CS(=O)(=O)c1ccc(-c2cc(C(=O)O)c3cccc(C(=O)c4ccccc4)c3n2)cc1 , please.
0.47

* * *

method_notes: Pharmacokinetic study after oral administration
Assay type: in vivo
test_context: rat, plasma; oral 20 mg/Kg vs IV 10 mg/Kg, female Wistar rats; read-out: F (absolute bioavailability)
quantity: bioavailability (%)
The response must be a number in % with no trailing unit.

Requested read-out: bioavailability. Entry: CS(=O)(=O)c1ccc(-c2cc(C(=O)O)c3cccc(C(=O)c4ccccc4)c3n2)cc1
25.6
